- Subject of test: AgBem1-D1
- Assay overview: SPOT peptide array binding signal intensity (averaged, normalized) (arbitrary units (background-subtracted, floor 0; scale differs between SH3 domains)); higher = stronger binding of the SH3 domain to the peptide
just bin them by SPOT peptide array binding signal intensity: lower band (below 50), central band (50 to below 200), upper band (200 or more)

# count of solved cases: 2
[
  {
    "Binder": "KNRKNLPTIPIRLSG",
    "Answer label": "central band"
  },
  {
    "Binder": "NMLSRPRLAKLPSIR",
    "Answer label": "upper band"
  }
]

Enquiry: Exam item: assign "VKPRQLFPIPLNKVD" to the correct category.
Return: lower band

Enquiry: Input "DFTLPPPPPPPGLDE"
Return: lower band

Enquiry: Try this binder next: "LTRRFPFLFPFDTRM"
Return: lower band

Enquiry: Next record, please: "NQARKPFLLPATELS"
Return: lower band

Enquiry: Ok, now "NMLKKKPLKKPLKRF"
Return: upper band

Enquiry: Another: "FPPKRKPLLRPQRSD"
Return: central band

Enquiry: Next entry: "VRTRRRPPPPPIPST"
Return: upper band

Enquiry: Try "DHPKGPPPPPPPDEK" next.
Return: lower band

Enquiry: Please give the result for "SKIRPTPRKPSRMAT" too.
Return: lower band

Data provenance: the supplement of paper PMC4466140
